The origin of these recorded values is paper PMC10436550.

experiment.notes: Toxicokinetics, plasma LPM3480392 after intravenous administration
Format: in vivo, Sprague Dawley (SD) rats
condition.summary: both sexes, Sprague-Dawley, rat, plasma, intravenous, 0.6 mg/kg/day, 0.6 mg/kg/day iv; 1st dosing day; F + M; read-out: C2min (The 3rd dosing)
measure.name: concentration at 2 min (ng/mL)
Write it as a number; the unit ng/mL goes unstated.

[in] Return concentration at 2 min (reported value) for this molecule: Fc1ccc([C@]2(CCNCc3cccc(Cl)c3)CCO[C@]3(CCOC3)C2)nc1
[out] 60.1

----------
experiment.notes: Toxicokinetics, plasma LPM3480392 after intravenous administration
Assay type: in vivo, Sprague Dawley (SD) rats
condition.summary: female, Sprague-Dawley, rat, plasma, intravenous, 2.4 mg/kg/day, 2.4 mg/kg/day iv; 1st dosing day; F; read-out: C2min (The 2nd dosing)
measure.name: concentration at 2 min (ng/mL)
Write it as a number; the unit ng/mL goes unstated.

[in] Return concentration at 2 min (reported value) for this molecule: Fc1ccc([C@]2(CCNCc3cccc(Cl)c3)CCO[C@]3(CCOC3)C2)nc1 [LPM3480392]
[out] 292

----------
experiment.notes: Toxicokinetics, plasma LPM3480392 after intravenous administration
Type: in vivo, Sprague Dawley (SD) rats
condition.summary: female, Sprague-Dawley, rat, plasma, intravenous, 1.2 mg/kg/day, 1.2 mg/kg/day iv; 1st dosing day; F; read-out: C2min (The 1st dosing)
measure.name: concentration at 2 min (ng/mL)
Write it as a number; the unit ng/mL goes unstated.

[in] Return concentration at 2 min (reported value) for this molecule: Fc1ccc([C@]2(CCNCc3cccc(Cl)c3)CCO[C@]3(CCOC3)C2)nc1 [LPM3480392]
[out] 181

----------
experiment.notes: Toxicokinetics, plasma LPM3480392 after intravenous administration
Type: in vivo, Sprague Dawley (SD) rats
condition.summary: both sexes, Sprague-Dawley, rat, plasma, intravenous, 2.4 mg/kg/day, 2.4 mg/kg/day iv; 28th dosing day; F + M; read-out: C2min (The 3rd dosing)
measure.name: concentration at 2 min (ng/mL)
Write it as a number; the unit ng/mL goes unstated.

[in] Return concentration at 2 min (reported value) for this compound: Fc1ccc([C@]2(CCNCc3cccc(Cl)c3)CCO[C@]3(CCOC3)C2)nc1
[out] 320

----------
experiment.notes: Toxicokinetics, plasma LPM3480392 after intravenous administration
Format: in vivo, Sprague Dawley (SD) rats
condition.summary: male, Sprague-Dawley, rat, plasma, intravenous, 1.2 mg/kg/day, 1.2 mg/kg/day iv; 28th dosing day; M; read-out: C2min (The 3rd dosing)
measure.name: concentration at 2 min
Remember to quote the unit after the number.

[in] Return concentration at 2 min (reported value) for this compound: Fc1ccc([C@]2(CCNCc3cccc(Cl)c3)CCO[C@]3(CCOC3)C2)nc1
[out] 131 ng/mL

----------
experiment.notes: Toxicokinetics, plasma LPM3480392 after intravenous administration
Format: in vivo, Sprague Dawley (SD) rats
condition.summary: female, Sprague-Dawley, rat, plasma, iv, 1.2 mg/kg/day, 1.2 mg/kg/day iv; 1st dosing day; F; read-out: AUC0–12h
measure.name: AUC(0-t)
Remember to quote the unit after the number.

[in] Return AUC(0-t) (reported value) for this compound: Fc1ccc([C@]2(CCNCc3cccc(Cl)c3)CCO[C@]3(CCOC3)C2)nc1 [LPM3480392]
[out] 719 ng·h/mL

----------
experiment.notes: Toxicokinetics, plasma LPM3480392 after intravenous administration
Assay type: in vivo, Sprague Dawley (SD) rats
condition.summary: both sexes, Sprague-Dawley, rat, plasma, iv, 1.2 mg/kg/day, female + male; 1.2 mg/kg/day; Day 28; read-out: Mean AUC0–12h
measure.name: AUC(0-t) (ng·h/mL)
Write it as a number; the unit ng·h/mL goes unstated.

[in] Return AUC(0-t) (reported value) for this compound: Fc1ccc([C@]2(CCNCc3cccc(Cl)c3)CCO[C@]3(CCOC3)C2)nc1
[out] 680

----------
experiment.notes: Toxicokinetics, plasma LPM3480392 after intravenous administration
Assay type: in vivo, Sprague Dawley (SD) rats
condition.summary: male, Sprague-Dawley, rat, plasma, intravenous, 2.4 mg/kg/day, 2.4 mg/kg/day iv; 1st dosing day; M; read-out: C2min (The 1st dosing)
measure.name: concentration at 2 min (ng/mL)
Write it as a number; the unit ng/mL goes unstated.

[in] Return concentration at 2 min (reported value) for this molecule: Fc1ccc([C@]2(CCNCc3cccc(Cl)c3)CCO[C@]3(CCOC3)C2)nc1 [LPM3480392]
[out] 328

----------
experiment.notes: Toxicokinetics, plasma LPM3480392 after intravenous administration
Assay type: in vivo, Sprague Dawley (SD) rats
condition.summary: both sexes, Sprague-Dawley, rat, plasma, iv, 0.6 mg/kg/day, female + male; 0.6 mg/kg/day; Day 1; read-out: Mean AUC0–12h
measure.name: AUC(0-t) (ng·h/mL)
Write it as a number; the unit ng·h/mL goes unstated.

[in] Return AUC(0-t) (reported value) for this compound: Fc1ccc([C@]2(CCNCc3cccc(Cl)c3)CCO[C@]3(CCOC3)C2)nc1 [LPM3480392]
[out] 315

----------
experiment.notes: Toxicokinetics, plasma LPM3480392 after intravenous administration
Format: in vivo, Sprague Dawley (SD) rats
condition.summary: female, Sprague-Dawley, rat, plasma, intravenous, 2.4 mg/kg/day, 2.4 mg/kg/day iv; 1st dosing day; F; read-out: C2min (The 1st dosing)
measure.name: concentration at 2 min (ng/mL)
Write it as a number; the unit ng/mL goes unstated.

[in] Return concentration at 2 min (reported value) for this molecule: Fc1ccc([C@]2(CCNCc3cccc(Cl)c3)CCO[C@]3(CCOC3)C2)nc1
[out] 331

----------
experiment.notes: Toxicokinetics, plasma LPM3480392 after intravenous administration
Assay type: in vivo, Sprague Dawley (SD) rats
condition.summary: both sexes, Sprague-Dawley, rat, plasma, intravenous, 2.4 mg/kg/day, 2.4 mg/kg/day iv; 28th dosing day; F + M; read-out: C2min (The 1st dosing)
measure.name: concentration at 2 min (ng/mL)
Write it as a number; the unit ng/mL goes unstated.

[in] Return concentration at 2 min (reported value) for this compound: Fc1ccc([C@]2(CCNCc3cccc(Cl)c3)CCO[C@]3(CCOC3)C2)nc1 [LPM3480392]
[out] 351

----------
experiment.notes: Toxicokinetics, plasma LPM3480392 after intravenous administration
Format: in vivo, Sprague Dawley (SD) rats
condition.summary: female, Sprague-Dawley, rat, plasma, intravenous, 2.4 mg/kg/day, 2.4 mg/kg/day iv; 28th dosing day; F; read-out: C2min (The 2nd dosing)
measure.name: concentration at 2 min (µg/mL)
Write it as a number; the unit µg/mL goes unstated.

[in] Return concentration at 2 min (reported value) for this compound: Fc1ccc([C@]2(CCNCc3cccc(Cl)c3)CCO[C@]3(CCOC3)C2)nc1
[out] 0.387

----------
experiment.notes: Toxicokinetics, plasma LPM3480392 after intravenous administration
Type: in vivo, Sprague Dawley (SD) rats
condition.summary: both sexes, Sprague-Dawley, rat, plasma, intravenous, 0.6 mg/kg/day, 0.6 mg/kg/day iv; 1st dosing day; F + M; read-out: C2min (The 1st dosing)
measure.name: concentration at 2 min (ng/mL)
Write it as a number; the unit ng/mL goes unstated.

[in] Return concentration at 2 min (reported value) for this molecule: Fc1ccc([C@]2(CCNCc3cccc(Cl)c3)CCO[C@]3(CCOC3)C2)nc1 [LPM3480392]
[out] 88.3

----------
experiment.notes: Toxicokinetics, plasma LPM3480392 after intravenous administration
Type: in vivo, Sprague Dawley (SD) rats
condition.summary: both sexes, Sprague-Dawley, rat, plasma, iv, 2.4 mg/kg/day, 2.4 mg/kg/day iv; 28th dosing day; F + M; read-out: AUC0–12h
measure.name: AUC(0-t) (ng·h/mL)
Write it as a number; the unit ng·h/mL goes unstated.

[in] Return AUC(0-t) (reported value) for this compound: Fc1ccc([C@]2(CCNCc3cccc(Cl)c3)CCO[C@]3(CCOC3)C2)nc1
[out] 1490

----------
experiment.notes: Toxicokinetics, plasma LPM3480392 after intravenous administration
Assay type: in vivo, Sprague Dawley (SD) rats
condition.summary: female, Sprague-Dawley, rat, plasma, intravenous, 2.4 mg/kg/day, 2.4 mg/kg/day iv; 28th dosing day; F; read-out: C2min (The 3rd dosing)
measure.name: concentration at 2 min (ng/mL)
Write it as a number; the unit ng/mL goes unstated.

[in] Return concentration at 2 min (reported value) for this molecule: Fc1ccc([C@]2(CCNCc3cccc(Cl)c3)CCO[C@]3(CCOC3)C2)nc1 [LPM3480392]
[out] 323

----------
experiment.notes: Toxicokinetics, plasma LPM3480392 after intravenous administration
Format: in vivo, Sprague Dawley (SD) rats
condition.summary: both sexes, Sprague-Dawley, rat, plasma, iv, 2.4 mg/kg/day, female + male; 2.4 mg/kg/day; Day 28; read-out: Mean AUC0–12h
Method: Blood samples from animals in LPM3480392 groups were collected at predose and 2 min, 30 min, 1 h and 4 h postdose of the 1st dosing on Days 1 and 28; at 2 min and 4 h postdose of the 2nd dosing on Days 1 and 28; at 2 min, 1 h and 4 h postdose the 3rd dosing on Days 1 and 28. Animals in control group were sampled at predose and 2 min postdose of the 1st dosing on Days 1 and 28. […] TK parameters (AUC, Cmax, Tmax) were calculated by Phoenix WinNonlin (Pharsight) 8.2. […]
measure.name: AUC(0-t) (ng·h/mL)
Write it as a number; the unit ng·h/mL goes unstated.

[in] Return AUC(0-t) (reported value) for this molecule: Fc1ccc([C@]2(CCNCc3cccc(Cl)c3)CCO[C@]3(CCOC3)C2)nc1 [LPM3480392]
[out] 1490
